system: MiaPaCa-2 cells; assay: MTS assay of MiaPaCa2 cultures, single 50 μM dose; type: cell-based, human; settings: MiaPaCa2, 50 μM, 48 hours, run 5
Each entry below carries its reported MTS assay result, run 5.
No unit in the answer, please; the number alone is enough.

So for Cc1c(C)c2c(c(C)c1OC(=O)CCC(=O)O)CC[C@@](C)(CCC[C@H](C)CCC[C@H](C)CCCC(C)C)O2 [TS, tocopherol succinate] , the logged MTS assay result, run 5 turned out to be 0.258

So for O=C(O)CCC(=O)O , the logged MTS assay result, run 5 turned out to be 0.32

So for CC(C)=CCC/C(C)=C/CC/C(C)=C/CC[C@]1(C)CCc2c(C)c(O)cc(C)c2O1 , the logged MTS assay result, run 5 turned out to be 0.231
